Overview of recorded Neut IC50 (µg/ml) subtype A for various binders
TEST_TARGET: RSV F protein of subtype A (strain A2) on recombinant mKate-RSV virus (Respiratory syncytial virus subtype A …, UniProt P03420 26-574)
EXPERIMENTAL_PROTOCOL: cell-based or functional assay
Field: numeric (µg/mL). Do not append units.

binder="ADI-18937 (antibody, V domains shown, full-length IgG from yeast; also called Antibody Number 290; Ab # 290) VH: QVQLQESGPGLVKPSQTLSLTCTVSGPSISAGDYNWNWIRQAPGKGLEWVGYIDYRGLTHYNPSLKGRLSILMDRSANQFSLELNSVTAADTAVYYCARDVGVYSGYDVFHYYGMDVWGQGTTVTVSS VL: ETTLTQSPVTLSLSPGERATLSCRASQYVRNNYLAWYQHKPGQAPRLLIYSASSRVTGTPDRFSGSGSGTDFTLTISRLEPEDFAVYYCQQYGGSPPVTFGPGTKVDIK" readout_unit=µg/mL val=0.084
binder="ADI-18883 (antibody, V domains shown, full-length IgG from yeast) VH: QVQLVQSGPEVKKPGSSVTVSCKASGGTFSNYGIAWVRQAPGQGLEWMGSTIPILGTASYRQSLKDRVTITADASTTTVYMEMTRLRTEDTAVYFCARVPESLVASNAYAVWGQGTVVTVSS VL: DIQMTQSPSSVSASVGDRVTITCRASQDISTWLAWYQQRPGKAPKLLIYTASSLQSGVPSRFSGSGSGTEFTLTISSLQPEDFATYYCQQGTSFPFTFGPGTKLEIK" readout_unit=µg/mL val=0.041

Continue with the next binder.
Entry ADI-18924 (antibody, V domains shown, full-length IgG from yeast) VH: QVQLVQSGAEVKKPGESLKISCQGSGYSFSSFWIVWVRQMPGKGLEWMGSIYPGDSDTRYTPSFQGQVTISADKSTSTAYLQWNSLKPSDTAMYYCARCSLSCDYYGVNLWGQGTTVTVSS VL: QSVVTQPPSVSGAPGQRVTISCSGSSSNIGARSDVHWYQQLPGKAPKLLIYGNTNRPLGVPDRFSGSTSGTSASLAISGLQAEDEGYYYCQSYDSSLSGFYVFGTGTKLTVL ; Neut IC50 (µg/ml) subtype A = 0.572
